targetUnderTest: T1, LRRC7, Q96NW7
T1 sequence (Q96NW7 1440-1537, limits assumed, looked up): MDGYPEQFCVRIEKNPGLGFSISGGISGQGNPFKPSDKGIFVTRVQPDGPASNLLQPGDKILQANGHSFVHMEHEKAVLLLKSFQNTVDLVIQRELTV
testSummary: holdup assay
Parameters: key: below the threshold = too weak to quantify, mostly under pKd 3.1 to 4
measurementParameters: plain residues with an end cap or a label only (N-terminal biotin on a linker: ado-ado)
readoutType: pKd

binder	readoutType	testValue
TGLWKHETTV [ADGRA3, Q8IWK6]	pKd	3.82
MHIQEKGFHV [EPHA6, Q9UF33]	pKd	below the threshold
IDESKKEWLI [CNTNAP2, Q9UHC6]	pKd	below the threshold
GTGYDRKDYV [CLDN3, O15551]	pKd	below the threshold
APIAGFSSFV [SDK2, Q58EX2]	pKd	3.65

GET /values?readout=pKd&item= EDPRVEVTQF [SLC22A9, Q8IVM8] below the threshold

Next: SLNANEVEWF [RNF130, Q86XS8] below the threshold

Next: QRPYRRGSEI [KCNJ18, B7U540] below the threshold

Next: NIAESLESLV [PTPRZ1, P23471] 3.76

Next: KRPEMTSSSV [MUC3A, MUC3B, Q02505;Q9H195] below the threshold

Next: KKMLQRRTLL [OR8G1, Q15617] below the threshold

Next: RSSGGDDFWF [KCNV1, Q6PIU1] below the threshold

Next: DGVNEKVSCV [HTR2A, P28223] below the threshold
